- System: HCT-15 colon
- Measurement notes: NCI tumour cell line growth inhibition, 48 h
Measurement name: TGI

Compound: N#Cc1nc(CCCN2C(=O)c3ccccc3C2=O)oc1N
Value observed: > 100 µM

Compound: CCOC(=O)/C=C(/C=C\COC1CCCCO1)c1ccccc1 (configuration not stated)
Value observed: > 100 µM

Compound: O=c1c(-c2ccccc2)c(SCCN2CCCCCC2)n(-c2ccccc2)c(=S)n1-c1ccccc1
Value observed: > 100 µM

Compound: O=c1oc2ccccc2c(O)c1C=NC(=S)c1ccncc1
Value observed: > 100 µM

Compound: Oc1c(OCc2nnc(CCCCCCCCc3nnc(COc4ccc5ccccc5c4O)o3)o2)ccc2ccccc12
Value observed: > 100 µM

Compound: NCCN(CCN(C(=O)Nc1ccccc1)c1ccccc1)C(=O)Nc1ccccc1
Value observed: 76.4 µM

Compound: N#Cc1ccc(-c2nc(C#N)c(N)o2)cc1
Value observed: > 10 µM

Compound: Cc1cc(OCc2nnc3sc(NC(=O)c4ccccc4)nn23)ccc1Cl
Value observed: > 100 µM

Compound: Cn1cc(C2=C(c3cn(C)c4ccc(N)cc34)C(=O)NC2=O)c2ccccc21
Value observed: > 25 µM

Compound: O=C(O)c1cc[c]([Hg][S]c2ncnc3nc[nH]c23)cc1
Value observed: 27.2 µM

Compound: CC[N+]1(C)CCC(O)(c2ccc(C)cc2)C(C(=O)c2ccc(C)cc2)C1 (configuration not stated)
Value observed: 45.9 µM

Compound: Cc1cc2c(cc1C)NC1=C(N2)OC(c2c[nH]c3ccc(COc4ccccc4)cc23)C1=O (configuration not stated)
Value observed: > 100 µM

Compound: CC1(C)N=C(N)N=C(N)N1c1cccc(OCc2cccc(N)c2)c1
Value observed: > 100 µM

Compound: CC(=O)c1cccc(N(/C=C/C(=O)C(F)(F)F)CC(=O)c2ccc(Cl)cc2)c1
Value observed: > 100 µM

Compound: COc1cc2c3c(cc(Cl)nc3c1OC)C(=O)C(=O)N2
Value observed: 40.8 µM

Compound: CCOc1ccc(N=Nc2ccc3cc(/C(C)=N/NC(=O)/C(C#N)=C\c4ccc(N(CCC#N)CCC#N)cc4)c(=O)oc3c2)cc1
Value observed: > 10 µM

Compound: Nc1cc2c3c(cccc3c1)NC2=O
Value observed: > 100 µM

Compound: O=C1N[C@@H]2CCC[C@@H]2[C@@H]1c1ccc(Cl)cc1
Value observed: > 100 µM

Compound: Nc1c(S(N)(=O)=O)cc(S(N)(=O)=O)cc1S(N)(=O)=O
Value observed: > 100 µM

Compound: Fc1cccc(Cl)c1C1SCc2nc3ccccc3n21 (configuration not stated)
Value observed: > 100 µM

Compound: Clc1cc(C(c2cc(Cl)sc2Cl)c2cc(Cl)sc2Cl)c(Cl)s1
Value observed: > 100 µM

Compound: COC(=O)C1=C(C)NC(C)=C(C(=O)OC)C1c1cccc(N=O)c1
Value observed: 32.5 µM
